target.or.test.system: cynomolgus monkey DLL4 extracellular domain (cynomolgus monkey)
test.details: Biacore SPR
Here, each record is paired with measured Kd data.
Numeric only. Scale: pM

{"columns": ["binder", "numeric.readout"],
 "data": [
  ["14G1 rat monoclonal antibody (antibody, V domains shown) VH: EVQLQQSGAELAKPGSSVKISCKASGYTFTNYDISWIKQTNGQGLEYLGYINTGSGGIYSNEKFKGKATLTVDKSSNTAFMQLSSLTPEDTAVYYCVREGNNFDHWGQGVKVTVSS VL: DTVMTQSPASMSTSVGERVTVNCKASQSVGTIVAWFQQKPGQSPKRLIYLATYRHTGVPDRFIGSGFGRDFTLTISNVEAEDLAVYYCLQYGSRPFTFGAGTKLEIKR", 10500],
  ["32C7 rat monoclonal antibody (antibody, V domains shown) VH: EVQLVESGGGLVQPGRSLKLSCLASGFPFSSVWMTWIRQAPGKGLEWIATITNSGASTYYSASVKGRFTISRDNVKSTLYLQMTSLGSEDTATYYCTRVGTSFDYWGQGVMVTVSS VL: DIQMTQSPASLSASLGETVTIECRASDDIYNGLAWFQQKPGKSPQLLIYDANTLHTGVPSRFSGSGSGTQFSLKINSLQSEDVASYFCQQFYDYPPYTFGAGTKLELKR", 30]
]}

Task: Which Kd value belongs to 38H12 rat monoclonal antibody (antibody, V domains shown) VH: EVQLVESGGGLVQPGRSLKLSCAASGFTFSNYGMYWIRQAPTKGLQWVAFISHGGGITYYRDSVKGRFTISRDNAKSTLYLQMDSLRSEDTATYHCAALNWELGIDYWGQGVMVTVSS VL: DIQMTQSPASLSASLGETISIECRASEDIYSNLAWYQKKSGKSPQLLIYAANRLQDGVPSRFSGSGSGTQYSLKISGMQPEDEGDYFCLQGSKFPLTFGSGTKLEIKR ?
Output: 400

Value source: patent US20160031986A1
